Values compiled from patent US6821980B1.

- assay.system: purified DHFR of strain 157/4696 of Staphylococcus aureus (Staphylococcus aureus, UniProt P13955)
- Sequence (P13955 whole entry): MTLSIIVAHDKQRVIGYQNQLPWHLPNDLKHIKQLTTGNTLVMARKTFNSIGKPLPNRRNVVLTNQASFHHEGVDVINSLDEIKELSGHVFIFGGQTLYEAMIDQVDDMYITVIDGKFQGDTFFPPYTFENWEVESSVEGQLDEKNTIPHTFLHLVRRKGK
- assay.notes: biochemical
property.label: IC50
Number first, unit second.

Exam item: Give the measured IC50 for "CCOc1cc(Cc2cnc(N)nc2N)cc(OCC)c1-c1ccc(N)c(OC)c1"
Marked response: 1900 nM

Exam item: Give the reported IC50 for this molecule. "CCOc1cc(Cc2cnc(N)nc2N)cc(OS(=O)(=O)N(C)CC)c1-c1ccc(CN2CCOCC2)c(N)c1"
Marked response: 140 nM

Exam item: Specify IC50 for "CCOc1cc(Cc2cnc(N)nc2N)cc(OS(=O)(=O)C2CC2)c1-c1ccc(CN2CCOCC2)s1" and stop.
Marked response: 190 nM

Exam item: In one line, give reported IC50 of the entry "CCOc1cc(Cc2cnc(N)nc2N)cc(OS(=O)(=O)N2CCOCC2)c1-c1ccc(N)cc1" .
Marked response: 45 nM

Exam item: Tell me measured IC50 for "CCOc1cc(Cc2cnc(N)nc2N)cc(OS(=O)(=O)N(C)C)c1-c1ccc(N)c(C#N)c1" please.
Marked response: 160 nM

Exam item: Specify IC50 for "CCOc1cc(Cc2cnc(N)nc2N)cc(OCC2CC2)c1-c1ccc(N)cc1" and stop.
Marked response: 1400 nM

Exam item: Given "CCOc1cc(Cc2cnc(N)nc2N)cc(OS(=O)(=O)CC)c1-c1cccc(N)c1" , respond with its IC50.
Marked response: 140 nM

Exam item: Tell me measured IC50 for "CCOc1cc(Cc2cnc(N)nc2N)cc(OCC)c1-c1ccc(OC)c(N)c1" please.
Marked response: 1200 nM

----------
- Tested on: Streptococcus pneumoniae 1/1
- assay.notes: MIC against Streptococcus pneumoniae 1/1
- Assay type: cell-based
- assay.setup: Table 2; Streptococcus pneumoniae 1/1, trimethoprim- and penicillin-resistant, serotype 6; clinical isolate; read-out: MIC Sp1/1
Task for the reader: assign each of the following compounds its reported log10 of MIC.
Annotation: log10 of MIC, µg/mL basis.

Exam item: Supply measured log10 of MIC of "CCOc1cc(Cc2cnc(N)nc2N)cc(OS(=O)(=O)N2CCCC2)c1-c1ccc(N)cc1" in your reply.
Marked response: 0.00

Exam item: Return value of log10 of MIC for input "CCOc1cc(Cc2cnc(N)nc2N)cc(OCC)c1-c1ccc(OC)c(N)c1" , no commentary.
Marked response: 0.60

Exam item: Write down log10 of MIC measured for item "CCOc1cc(Cc2cnc(N)nc2N)cc(OS(=O)(=O)C(C)C)c1-c1ccc(OC(C)=O)cc1"
Marked response: 0.30

Exam item: Return value of log10 of MIC for input "CCOc1cc(Cc2cnc(N)nc2N)cc(OS(=O)(=O)CC(C)(C)OC)c1-c1ccc(N)c(C)c1" , no commentary.
Marked response: -0.30

Exam item: Provide log10 of MIC value for the following compound: "CCOc1cc(Cc2cnc(N)nc2N)cc(OS(=O)(=O)N2CCOCC2)c1-c1cccc(N)c1"
Marked response: 0.00

Exam item: For the compound "CCOc1cc(Cc2cnc(N)nc2N)cc(OS(=O)(=O)C2CC2)c1-c1cccc(N)c1" , give its measured log10 of MIC value.
Marked response: 0.00

Exam item: Please report the measured log10 of MIC for "CCOc1cc(Cc2cnc(N)nc2N)cc(OCC2(CC#N)CC2)c1-c1ccc(OC)cc1"
Marked response: 0.30

Exam item: Return log10 of MIC (reported value) for this compound: "CCOc1cc(Cc2cnc(N)nc2N)cc(OS(=O)(=O)CC(C)C)c1-c1ccc(N)c(C)c1"
Marked response: -0.60

Exam item: Retrieve log10 of MIC measured for "CCOc1cc(Cc2cnc(N)nc2N)cc(OCC)c1-c1ccc(C)cc1" and print it.
Marked response: 0.90

Exam item: Name the recorded log10 of MIC of the compound listed here: CCOc1cc(Cc2cnc(N)nc2N)cc(OS(=O)C(C)(C)C)c1-c1ccc(O)cc1 (centres unmarked)
Marked response: 0.60

Exam item: Consider the compound "CCOc1cc(Cc2cnc(N)nc2N)cc(OCC)c1-c1ccc(OC)c(C)c1" . State its measured log10 of MIC.
Marked response: 0.60

Exam item: For the compound "CCOc1cc(Cc2cnc(N)nc2N)cc(OS(=O)(=O)CC(C)(C)OC)c1-c1cccc(N)c1" , give its measured log10 of MIC value.
Marked response: 0.00

Exam item: Entry "CCOc1cc(Cc2cnc(N)nc2N)cc(OS(=O)(=O)N(C)C2CC2)c1-c1ccc(N)c(C)c1" needs its log10 of MIC filled in; supply it.
Marked response: 0.00

Exam item: Indicate the recorded log10 of MIC value for this compound: "CCOc1cc(Cc2cnc(N)nc2N)cc(OS(=O)(=O)C2CC2)c1-c1ccc(O)cc1"
Marked response: 0.00

Exam item: Quote log10 of MIC reported for "CCCS(=O)(=O)Oc1cc(Cc2cnc(N)nc2N)cc(OCC)c1-c1ccc2c(c1)OCO2" please.
Marked response: 0.00

Exam item: Report log10 of MIC, nothing else, for this compound: "CCOc1cc(Cc2cnc(N)nc2N)cc(OCC)c1-c1ccc(N)c(C)c1"
Marked response: 0.30

Exam item: Tell me its log10 of MIC given "CCOc1cc(Cc2cnc(N)nc2N)cc(OS(=O)(=O)N(C)C)c1-c1ccc(N)c(C)c1" as the entry.
Marked response: 0.00

Exam item: Given "CCOc1cc(Cc2cnc(N)nc2N)cc(OS(=O)(=O)C(C)C)c1-c1ccc(CN(C)C)c(N)c1" , respond with its log10 of MIC.
Marked response: 0.90

Exam item: Hello, please tell me recorded log10 of MIC for this one: "CCOc1cc(Cc2cnc(N)nc2N)cc(OCC)c1-c1ccc2ncccc2c1"
Marked response: 0.90

Exam item: Fill in reported log10 of MIC for this entry: CCOc1cc(Cc2cnc(N)nc2N)cc(OS(=O)(=O)C(C)CC)c1-c1ccc(OC)c(N)c1 (centres unmarked)
Marked response: 0.00

Exam item: Tell me log10 of MIC reported for "CCOc1cc(Cc2cnc(N)nc2N)cc(OS(=O)(=O)N(C)C(C)C)c1-c1cccc(N)c1"
Marked response: 0.30

Exam item: Hello, please tell me recorded log10 of MIC for this one: "CCOc1cc(Cc2cnc(N)nc2N)cc(OCC)c1-c1ccc(CN(C)CCF)c(F)c1"
Marked response: 0.60

Exam item: State its log10 of MIC for this compound: "CCOc1cc(Cc2cnc(N)nc2N)cc(OS(C)(=O)=O)c1-c1ccc(OC)cc1"
Marked response: 0.30

Exam item: Return the recorded log10 of MIC value; entry: "CCOc1cc(Cc2cnc(N)nc2N)cc(OS(=O)(=O)N2CCCCC2)c1-c1ccc(O)cc1"
Marked response: -0.30

Exam item: Specify measured log10 of MIC for "CCOc1cc(Cc2cnc(N)nc2N)cc(OCC2(C#N)CC2)c1-c1ccc(O)cc1" .
Marked response: 0.60

Exam item: Please look at this compound and report its log10 of MIC: "CCOc1cc(Cc2cnc(N)nc2N)cc(OS(=O)(=O)C(C)C)c1-c1ccc(O)cc1"
Marked response: 0.00

Exam item: Please indicate log10 of MIC recorded for "CCOc1cc(Cc2cnc(N)nc2N)cc(OS(=O)(=O)CC(C)C)c1-c1ccc(OCCOC)cc1"
Marked response: 0.00

Exam item: Indicate its recorded log10 of MIC; the compound in question is "CCOc1cc(Cc2cnc(N)nc2N)cc(OCC)c1-c1cc(N)cc(F)c1"
Marked response: 0.30

Exam item: Report log10 of MIC for "CCOc1cc(Cc2cnc(N)nc2N)cc(OS(=O)(=O)N(C)CC)c1-c1cc(N)cc(F)c1"
Marked response: 0.30

Exam item: Dear colleague, please send me the reported log10 of MIC for CCOc1cc(Cc2cnc(N)nc2N)cc(OC2CCC(OC)C2)c1-c1ccc(O)cc1 (centres unmarked) when you can.
Marked response: 0.90

Exam item: Provide log10 of MIC value for the following compound: "CCOc1cc(Cc2cnc(N)nc2N)cc(OS(=O)(=O)N(C)C)c1-c1ccc(SC)cc1"
Marked response: 0.60

Exam item: Tell me its log10 of MIC given "CCOc1cc(Cc2cnc(N)nc2N)cc(OS(=O)(=O)N(C)C2CC2)c1-c1ccc(N)c(F)c1" as the entry.
Marked response: 0.00

----------
Field: log10 IC50. Provide a value for each of the compounds that follow.
- assay.system: purified DHFR of strain 157/4696 of Staphylococcus aureus (Staphylococcus aureus)
- assay.notes: biochemical
- assay.setup: Table 2; IC50 against purified DHFR of strain 157/4696 (highly trimethoprim-resistant; clinical isolate); read-out: DHFR Sa1
Note the log scale: values are log10 of IC50 expressed in nM.

Exam item: Answer with reported log10 IC50 of "CCCS(=O)(=O)Oc1cc(Cc2cnc(N)nc2N)cc(OCC)c1-c1cc(N)cc(F)c1"
Marked response: 2.62

Exam item: Find the measured log10 IC50 of "CCOc1cc(Cc2cnc(N)nc2N)cc(OS(=O)(=O)CC(C)(C)OC)c1-c1ccc(CN2CCOCC2)c(N)c1" and report it.
Marked response: 2.61

Exam item: Look up and state reported log10 IC50 for "CCOc1cc(Cc2cnc(N)nc2N)cc(OS(=O)(=O)C(C)C)c1-c1ccc(CN2CCOCC2)c(N)c1"
Marked response: 1.59

Exam item: // Input: "CCOc1cc(Cc2cnc(N)nc2N)cc(OS(=O)(=O)CC(C)(C)OC)c1-c1ccc(N)c(F)c1" . Output its log10 IC50 only.
Marked response: 3.00

Exam item: Input "CCOc1cc(Cc2cnc(N)nc2N)cc(OCC2(CCC#N)CC2)c1-c1ccc(O)cc1" , output reported log10 IC50.
Marked response: 3.08

Exam item: Consider the compound "CCCS(=O)(=O)Oc1cc(Cc2cnc(N)nc2N)cc(OCC)c1-c1ccc(F)c(N)c1" and give its recorded log10 IC50.
Marked response: 2.11

Exam item: Read the entry "CCOc1cc(Cc2cnc(N)nc2N)cc(OS(=O)(=O)C2CCC2)c1-c1ccc(N)c(F)c1" and write its reported log10 IC50.
Marked response: 2.49
